The reported measurements were obtained from patent US20120202822A1.

Tested on: SW403
Assay: Fixed Ratio Drug Combination Assay, cell proliferation (CellTiter Glo)
Assay type: cell-based, human
Conditions: Homo sapiens, SW-403, 72 hours, read-out: gIC50
MEASURED_PROPERTY: IC50 (nM)
One number for each entry, in nM.

Any idea what IC50 was measured for COc1ncc(-c2ccc3nccc(-c4ccnnc4)c3c2)cc1NS(=O)(=O)c1ccc(F)cc1F ?
1.5

====

Test system: HCT15
Test: Fixed Ratio Drug Combination Assay, cell proliferation (CellTiter Glo)
Type: cell-based, human
Conditions: Homo sapiens, HCT-15, 72 hours, read-out: gIC50
MEASURED_PROPERTY: pIC50
One number for each entry, as −log10 of the molar value.

Which pIC50 is reported for this compound? COc1ncc(-c2ccc3nccc(-c4ccnnc4)c3c2)cc1NS(=O)(=O)c1ccc(F)cc1F
8.14

====

Tested on: HCC2998
Experiment: Fixed Ratio Drug Combination Assay, cell proliferation (CellTiter Glo)
Format: cell-based, human
Details: Homo sapiens, HCC 2998, 72 hours, read-out: gIC50
MEASURED_PROPERTY: pIC50
One number for each entry, as −log10 of the molar value.

Required: pIC50, one value per compound below.
1. CC(C)(C)c1nc(-c2cccc(NS(=O)(=O)c3c(F)cccc3F)c2F)c(-c2ccnc(N)n2)s1 [Compound A]
2. COc1ncc(-c2ccc3nccc(-c4ccnnc4)c3c2)cc1NS(=O)(=O)c1ccc(F)cc1F [Compound B]

5.62
8.33

====

System: HCT8
Test: Fixed Ratio Drug Combination Assay, cell proliferation (CellTiter Glo)
Type: cell-based, human
Details: Homo sapiens, HCT-8, 72 hours, read-out: gIC50
MEASURED_PROPERTY: pIC50
One number for each entry, as −log10 of the molar value.

Fill in the blank: the reported pIC50 of COc1ncc(-c2ccc3nccc(-c4ccnnc4)c3c2)cc1NS(=O)(=O)c1ccc(F)cc1F is ____.
8.08

====

System: NCIH747
Assay: Fixed Ratio Drug Combination Assay, cell proliferation (CellTiter Glo)
Format: cell-based, human
Settings: Homo sapiens, NCI-H747, 72 hours, read-out: gIC50
MEASURED_PROPERTY: pIC50
Answers are plain numbers, as −log10 of the molar value.

Please look up its pIC50: COc1ncc(-c2ccc3nccc(-c4ccnnc4)c3c2)cc1NS(=O)(=O)c1ccc(F)cc1F [Compound B]
8.57

====

Tested on: SW1417
Experiment: Fixed Ratio Drug Combination Assay, cell proliferation (CellTiter Glo)
Assay type: cell-based, human
Details: Homo sapiens, 72 hours, read-out: gIC50
MEASURED_PROPERTY: IC50 (nM)
Give bare numbers, in nM.

>  <CHEMICAL_STRUCTURE>
COc1ncc(-c2ccc3nccc(-c4ccnnc4)c3c2)cc1NS(=O)(=O)c1ccc(F)cc1F

>  <IC50 [nM]>
1.4

$$$$

Please find the next compound below.
Quick one: IC50 of CC(C)(C)c1nc(-c2cccc(NS(=O)(=O)c3c(F)cccc3F)c2F)c(-c2ccnc(N)n2)s1 ?
246

====

Tested on: SW48
Assay: Fixed Ratio Drug Combination Assay, cell proliferation (CellTiter Glo)
Type: cell-based, human
Conditions: Homo sapiens, 72 hours, read-out: gIC50
Procedure: Combination drug tests with Compounds A and B were conducted using a panel of cell lines from human colon cancers (n=25) (Table 1). […] Assays were performed in 96 well microtiter plates with appropriate seeding densities estimated from previous studies of each cell line. […] Cell proliferation was measured using the CellTiter Glo (Promega Corporation, Madison, Wis., USA) reagent according to the manufacturer's protocol. […]
MEASURED_PROPERTY: pIC50
Give bare numbers, as −log10 of the molar value.

Form field: reported pIC50 of COc1ncc(-c2ccc3nccc(-c4ccnnc4)c3c2)cc1NS(=O)(=O)c1ccc(F)cc1F
8.59
